Reference for the values: patent US20240217966A1

TARGET_OR_SYSTEM: Human GLP-1 receptor (Homo sapiens)
Construct: expressed in transfected cells
Sequence (P43220 24-463): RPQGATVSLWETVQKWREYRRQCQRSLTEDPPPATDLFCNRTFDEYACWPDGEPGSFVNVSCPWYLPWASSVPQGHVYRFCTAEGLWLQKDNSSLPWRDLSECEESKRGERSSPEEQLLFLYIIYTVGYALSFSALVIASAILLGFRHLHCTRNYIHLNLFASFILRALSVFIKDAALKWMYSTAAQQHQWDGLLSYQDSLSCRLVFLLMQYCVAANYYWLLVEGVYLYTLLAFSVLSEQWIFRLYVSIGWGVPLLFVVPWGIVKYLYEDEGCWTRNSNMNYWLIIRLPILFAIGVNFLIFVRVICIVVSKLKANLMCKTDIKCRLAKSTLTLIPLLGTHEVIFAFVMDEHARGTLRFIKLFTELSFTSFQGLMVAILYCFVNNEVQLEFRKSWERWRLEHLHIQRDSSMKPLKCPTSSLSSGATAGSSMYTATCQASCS
PROTOCOL_TEXT: Measurement of GLP-1 receptor agonist activity (cAMP assay)
Assay type: cell-based
MEASUREMENT_PARAMETERS: hGLP-1R/CHO-K1 cells, cAMP increase, 37° C. 1 hour
Reported EC50 values follow for various compounds
ASSAY_READOUT: EC50 (nM)

CPD_SMILES	UNIT	MEASUREMENT
C[C@H]1c2cc(OCc3ccc(C(F)F)cc3F)c(C(F)(F)F)cc2CCN1Cc1nc2ccc(C(=O)O)cc2n1C[C@@H]1CCO1	nM	1.82
C[C@H]1c2cc(OCc3ccc(Cl)cn3)c(C(F)(F)F)cc2CCN1Cc1nc2ccc(C(=O)O)c(F)c2n1C[C@@H]1CCO1	nM	0.644
C[C@H]1c2cc(OCc3c(F)cc(F)cc3F)c(C(F)(F)F)cc2CCN1Cc1nc2ccc(C(=O)O)cc2n1C[C@@H]1CCO1	nM	1.71
Cc1ccc(COc2cc3c(cc2C(F)(F)F)CCN(Cc2nc4ccc(C(=O)O)nc4n2C[C@@H]2CCO2)[C@H]3C)cc1	nM	1.88
C[C@H]1c2cc(OCc3ccc(F)cc3F)c(C(F)(F)F)cc2CCN1Cc1nc2ccc(C(=O)O)cc2n1C[C@@H]1CCO1	nM	1.23
C[C@H]1c2cc(OCc3ccc(C#N)cc3)c(C(F)(F)F)cc2CCN1Cc1nc2c(F)cc(C(=O)O)cc2n1C[C@@H]1CCO1	nM	1.1
